Source: ChEMBL document CHEMBL5252607

Please consider the recorded IC50 for Cytochrome P450 2A6 (Homo sapiens, UniProt P11509) in what follows.
Measured attribute: IC50 (µM)

In [3]: df
Out[3]:
          smiles_notation  endpoint_result
0    COc1ccc2oc(=O)ccc2c1              0.2
1  CCCOc1cccc2oc(=O)ccc12             1.06
2    COc1cccc2oc(=O)ccc12             0.13
3   CCOc1cccc2oc(=O)ccc12             0.17

* * *

- Target of assay: Cytochrome P450 2A6 (Homo sapiens, UniProt P11509)
- Sequence (P11509 whole entry): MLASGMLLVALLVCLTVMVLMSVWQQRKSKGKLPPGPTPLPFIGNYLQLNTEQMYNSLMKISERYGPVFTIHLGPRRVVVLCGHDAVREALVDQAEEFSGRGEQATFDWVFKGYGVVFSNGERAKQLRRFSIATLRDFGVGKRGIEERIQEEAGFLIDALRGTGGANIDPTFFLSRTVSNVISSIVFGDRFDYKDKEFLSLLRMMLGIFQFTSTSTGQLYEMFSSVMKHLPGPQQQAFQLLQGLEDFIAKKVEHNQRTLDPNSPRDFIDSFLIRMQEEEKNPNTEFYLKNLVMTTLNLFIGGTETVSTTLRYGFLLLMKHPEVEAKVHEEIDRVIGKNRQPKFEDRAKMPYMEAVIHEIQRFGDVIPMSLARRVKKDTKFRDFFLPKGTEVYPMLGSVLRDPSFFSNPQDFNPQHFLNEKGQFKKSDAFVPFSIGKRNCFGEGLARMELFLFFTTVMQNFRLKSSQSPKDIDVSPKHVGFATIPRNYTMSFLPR
- Method: Mixed type inhibition of CYP2A6 (unknown origin)
- Type: ADME
pKi: −log10 of the molar value.
Measured attribute: pKi

        smiles_notation  measured_attribute  endpoint_result
0  COc1cccc2oc(=O)ccc12                 pKi             7.30

* * *

- Test system: CYP3A4 / CYP2A6
- Method: Selectivity ratio of Ki for mixed type inhibition of CYP3A4 (unknown origin) to ratio of Ki for competitive inhibition of CYP2A6 (unknown origin)
- Format: ADME
- Test conditions: human; read-out: Ratio Ki
# Lookup of reported selectivity ratio keyed by entry
Measured attribute: selectivity ratio

           smiles_notation  endpoint_result
0  C=CCOc1cccc2oc(=O)ccc12              937
1  C#CCOc1cccc2oc(=O)ccc12             4660

* * *

- Tested on: CYP3A4 / CYP2A6
- Method: Selectivity ratio of Ki for non-competitive inhibition of CYP3A4 (unknown origin) to ratio of Ki for mixed type inhibition of CYP2A6 (unknown origin)
- Assay type: ADME
- Test conditions: human; read-out: Ratio Ki
Measured attribute: selectivity ratio

        smiles_notation  measured_attribute  endpoint_result
0  COc1cccc2oc(=O)ccc12   selectivity ratio             8970

* * *

Each record here notes measured Ki.
- Target of assay: Cytochrome P450 3A4 (Homo sapiens, UniProt P08684)
- Sequence (P08684 whole entry): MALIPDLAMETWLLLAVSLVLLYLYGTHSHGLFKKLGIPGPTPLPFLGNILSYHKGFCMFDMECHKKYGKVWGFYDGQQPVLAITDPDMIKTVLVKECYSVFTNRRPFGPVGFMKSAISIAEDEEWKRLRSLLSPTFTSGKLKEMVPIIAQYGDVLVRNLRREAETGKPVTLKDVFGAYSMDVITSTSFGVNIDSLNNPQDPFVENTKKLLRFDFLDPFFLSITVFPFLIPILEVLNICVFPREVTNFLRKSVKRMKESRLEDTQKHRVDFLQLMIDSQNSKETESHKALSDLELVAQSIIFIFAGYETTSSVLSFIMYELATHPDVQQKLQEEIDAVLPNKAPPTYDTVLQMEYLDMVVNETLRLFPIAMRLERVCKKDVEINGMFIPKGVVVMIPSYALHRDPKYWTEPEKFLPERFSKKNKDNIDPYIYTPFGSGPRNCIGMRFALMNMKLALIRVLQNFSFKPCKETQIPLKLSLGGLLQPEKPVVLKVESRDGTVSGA
- Method: Mixed type inhibition of CYP3A4 (unknown origin)
- Assay type: ADME
Measured attribute: Ki (µM)

>>> df
           smiles_notation  endpoint_result
0  C#CCOc1cccc2oc(=O)ccc12             46.6
1  C=CCOc1cccc2oc(=O)ccc12             28.1
